- System: TE-6
- procedure-summary: Cell proliferation assay (Alamar Blue)
- Assay type: cell-based
- stated-conditions: Homo sapiens, 144 h; TE-6 tumor cell line; 6 days culture
- Experimental: 1. Instruments and Materials • Thermo 311 CO2 incubator; Haier biosafety cabinet; Molecular Devices microplate reader; Xiangyi brand L530 desktop low speed centrifuge; Olympus IX51 inverted fluorescence microscope, DMEM, RPMI 1640, MEM, DMEM/F12 1:1 medium, Fetal bovine serum, 0.25% trypsin solution, phosphate buffer (Thermo Fisher Shanghai Co., Ltd.); sigma dimethyl sulfoxide (DMSO), resazurin; 54 commercial tumor cell lines (including 26 liver cancer cell lines). […]
Measured IC50 by item
recorded-metric: IC50 (µM)

compound="Cc1ccc(F)c(NC(=O)Nc2ccc(-c3cccc4[nH]nc(NC(=O)C[C@H](N)C(=O)O)c34)cc2)c1 [Compound 10]" system_under_test=TE-6 recorded_metric=IC50 lt_gt_eq== reported_value=6.98
compound="Cc1ccc(F)c(NC(=O)Nc2ccc(-c3cccc4[nH]nc(NC(=O)C[C@H](N)C(=O)N[C@@H](CCC(=O)N[C@@H](CCC(=O)N[C@@H](CCC(=O)N[C@@H](CCC(=O)O)C(=O)O)C(=O)O)C(=O)O)C(=O)O)c34)cc2)c1 [Compound 2]" system_under_test=TE-6 recorded_metric=IC50 lt_gt_eq== reported_value=27.6
compound="Cc1ccc(F)c(NC(=O)Nc2ccc(-c3cccc4[nH]nc(NC(=O)CCCCCCCCCCCNC(=O)C[C@H](N)C(=O)N[C@@H](CCC(=O)N[C@@H](CCC(=O)N[C@@H](CCC(=O)N[C@@H](CCC(=O)O)C(=O)O)C(=O)O)C(=O)O)C(=O)O)c34)cc2)c1 [Compound 8]" system_under_test=TE-6 recorded_metric=IC50 lt_gt_eq=> reported_value=100
compound="Cc1ccc(F)c(NC(=O)Nc2ccc(-c3cccc4[nH]nc(NC(=O)C[C@H](N)C(=O)N[C@@H](CCC(=O)O)C(=O)O)c34)cc2)c1 [Compound 1]" system_under_test=TE-6 recorded_metric=IC50 lt_gt_eq== reported_value=10.5
compound="Cc1ccc(F)c(NC(=O)Nc2ccc(-c3cccc4[nH]nc(NC(=O)CCCCCNC(=O)C[C@H](N)C(=O)N[C@@H](CCC(=O)N[C@@H](CCC(=O)N[C@@H](CCC(=O)N[C@@H](CCC(=O)O)C(=O)O)C(=O)O)C(=O)O)C(=O)O)c34)cc2)c1 [Compound 5]" system_under_test=TE-6 recorded_metric=IC50 lt_gt_eq=> reported_value=100
